# System: Mus musculus
# procedure.summary: Neurotoxicity in Mus musculus Swiss albino (mouse) assessed as potentiation of ethanol-mediated effect at 100 to 300 mg/kg, ip administered 1 hr followed by ethanol challenge
# Format: toxicity, organism-based
# Design: dose 100-300 mg/kg, route intraperitoneal
# measurement.setup: in vivo
readout.name: Activity

* CCCNC(=S)N1CCC(CC2Cc3cc(OC)c(OC)cc3C2=O)CC1 (stereo unspecified) | Non-toxic
* COc1cc2c(cc1OC)C(=O)C(CC1CCN(C(=S)Nc3ccccc3Cl)CC1)C2 (stereo unspecified) | Toxic
* COc1cc2c(cc1OC)C(=O)C(CC1CCN(C(=S)Nc3ccc(Cl)cc3)CC1)C2 (stereo unspecified) | Non-toxic
* COc1cc2c(cc1OC)C(=O)C(CC1CCN(C(=S)Nc3ccccc3C)CC1)C2 (stereo unspecified) | Non-toxic

Item: COc1cc2c(cc1OC)C(=O)C(CC1CCN(C(=S)Nc3ccc([N+](=O)[O-])cc3)CC1)C2 (stereo unspecified) | Activity: Non-toxic

Item: CCCCNC(=S)N1CCC(CC2Cc3cc(OC)c(OC)cc3C2=O)CC1 (stereo unspecified) | Activity: Non-toxic

====

# procedure.summary: Lipophilicity, log P of the compound
# Assay type: physicochemical
# measurement.setup: octanol/water
readout.name: logP
Answer with the value's number alone.

Guide cases for logP, answers given:
• COc1cc2c(cc1OC)C(=O)C(CC1CCN(C(=S)Nc3ccc([N+](=O)[O-])cc3)CC1)C2 (stereo not drawn) = 4.58
• COc1cc2c(cc1OC)C(=O)C(CC1CCN(C(=S)Nc3ccc(C)cc3)CC1)C2 (stereo not drawn) = 4.58

Now, please, on to the next molecule.
Item: COc1cc2c(cc1OC)C(=O)C(CC1CCN(C(=S)Nc3ccc(Cl)cc3)CC1)C2 (stereo not drawn) | logP: 5.11

Data origin: ChEMBL document CHEMBL3045936
